tested-target: hGPR119 (Homo sapiens, UniProt Q8TDV5)
Construct: expressed in transfected cells
Sequence (Q8TDV5 2-335): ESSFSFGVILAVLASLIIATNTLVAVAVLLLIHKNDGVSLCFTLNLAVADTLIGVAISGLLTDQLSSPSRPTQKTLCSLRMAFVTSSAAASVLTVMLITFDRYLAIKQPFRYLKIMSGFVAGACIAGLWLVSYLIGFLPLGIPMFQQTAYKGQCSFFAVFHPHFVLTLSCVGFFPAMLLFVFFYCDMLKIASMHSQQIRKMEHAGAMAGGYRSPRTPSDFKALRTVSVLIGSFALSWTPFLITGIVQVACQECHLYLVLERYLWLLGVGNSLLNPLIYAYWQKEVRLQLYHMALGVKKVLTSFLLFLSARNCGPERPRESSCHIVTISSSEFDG
experiment-description: HTRF assay for direct cAMP measurement in CHO-K1 cells stably expressing the GPR119 receptor
Type: cell-based
pEC50: −log10 of the molar value.
Criterion: pEC50 meeting or surpassing 7. Met: 1. Not met: 0.

I'd appreciate it if you could say whether `CS(=O)(=O)c1ccc(OC[C@H]2CC[C@H](N3CCN(c4nc(C(F)(F)F)no4)CC3)CC2)c(F)c1` has pEC50 at least equal to 7.
1

I'd appreciate it if you could say whether `C[C@@H](OC(=O)N1CCN([C@H]2CC[C@H](COc3ccc(-n4cnnn4)cc3F)CC2)CC1)C(F)(F)F` has pEC50 at least equal to 7.
1

I'd appreciate it if you could say whether `CN(C)C(=O)c1ccc(OC[C@H]2CC[C@H](N3CCN(C(=O)OC(C)(C)C)CC3)CC2)c(F)c1` has pEC50 at least equal to 7.
0

I'd appreciate it if you could say whether `N#Cc1ccc(OC[C@H]2CC[C@H](N3CCN(c4ncc(C(F)(F)F)cn4)CC3)CC2)cc1` has pEC50 at least equal to 7.
0

I'd appreciate it if you could say whether `Cc1nc(S(C)(=O)=O)ccc1OC[C@H]1CC[C@H](N2CCN(c3ncc(C(F)(F)F)cn3)C[C@@H]2C)CC1` has pEC50 at least equal to 7.
0

I'd appreciate it if you could say whether `CS(=O)(=O)c1ccc(OC[C@H]2CC[C@H](N3CCN(c4ncc(Cl)cn4)CC3)CC2)c(F)c1` has pEC50 at least equal to 7.
1
